Cited source for all entries: paper PMC3602277

Target Of Assay: UniProt P35968
Sequence (P35968 20-1356): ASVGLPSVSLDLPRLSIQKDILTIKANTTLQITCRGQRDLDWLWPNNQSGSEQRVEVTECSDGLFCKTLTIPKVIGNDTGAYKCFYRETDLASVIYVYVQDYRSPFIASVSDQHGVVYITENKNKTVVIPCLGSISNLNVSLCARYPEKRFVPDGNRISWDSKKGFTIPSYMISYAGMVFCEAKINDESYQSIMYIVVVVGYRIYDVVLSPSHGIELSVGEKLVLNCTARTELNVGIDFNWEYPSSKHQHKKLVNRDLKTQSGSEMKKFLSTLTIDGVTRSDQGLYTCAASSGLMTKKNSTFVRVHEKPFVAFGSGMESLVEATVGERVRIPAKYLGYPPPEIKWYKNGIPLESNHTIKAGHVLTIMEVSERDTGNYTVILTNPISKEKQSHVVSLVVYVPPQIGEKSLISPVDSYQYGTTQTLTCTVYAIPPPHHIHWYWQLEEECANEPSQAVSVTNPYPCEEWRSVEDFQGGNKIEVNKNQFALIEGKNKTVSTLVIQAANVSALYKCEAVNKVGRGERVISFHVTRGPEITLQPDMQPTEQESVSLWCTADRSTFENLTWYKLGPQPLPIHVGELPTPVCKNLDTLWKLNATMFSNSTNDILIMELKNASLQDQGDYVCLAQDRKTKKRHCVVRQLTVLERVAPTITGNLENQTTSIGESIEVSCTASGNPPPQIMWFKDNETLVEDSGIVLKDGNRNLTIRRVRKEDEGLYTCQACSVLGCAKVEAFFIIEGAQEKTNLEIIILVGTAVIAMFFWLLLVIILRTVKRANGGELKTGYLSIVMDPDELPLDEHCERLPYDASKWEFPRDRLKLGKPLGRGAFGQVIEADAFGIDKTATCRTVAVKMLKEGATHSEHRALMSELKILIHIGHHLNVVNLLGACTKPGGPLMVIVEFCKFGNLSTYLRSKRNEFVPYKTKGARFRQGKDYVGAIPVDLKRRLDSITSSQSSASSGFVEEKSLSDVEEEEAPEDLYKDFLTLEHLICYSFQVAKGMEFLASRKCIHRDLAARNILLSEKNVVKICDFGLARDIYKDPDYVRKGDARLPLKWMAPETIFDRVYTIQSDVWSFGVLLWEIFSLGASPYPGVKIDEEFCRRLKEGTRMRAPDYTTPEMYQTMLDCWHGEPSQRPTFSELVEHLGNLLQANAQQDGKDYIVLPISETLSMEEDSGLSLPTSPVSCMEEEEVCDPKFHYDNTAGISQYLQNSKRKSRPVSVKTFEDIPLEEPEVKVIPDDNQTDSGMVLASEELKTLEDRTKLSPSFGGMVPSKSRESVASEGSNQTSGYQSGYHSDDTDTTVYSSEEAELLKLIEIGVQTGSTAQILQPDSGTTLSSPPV
Assay Method Text: Phosphotyrosine ELISA cytoblot, VEGFR-2 kinase inhibition in whole cells
Assay type: cell-based
Measurement Parameters: ratio of IC50 vs semaxanib 20
Measurement Kind: fold less active than standard 20 in VEGFR-2 inhibition assay

Solved cases (3 shown):
Sample "CC(C)c1ccc(Nc2nc(NC(=O)C(C)(C)C)nc3[nH]c4cccc(Cl)c4c23)cc1" — what was its fold less active than standard 20 in VEGFR-2 inhibition assay?
~4 fold

Sample "CC(C)(C)C(=O)Nc1nc(Nc2ccc(Cl)cc2)c2c(n1)[nH]c1cccc(Cl)c12" — what was its fold less active than standard 20 in VEGFR-2 inhibition assay?
2 fold

Sample "COc1cccc(Nc2nc(N)nc3[nH]c4cccc(Cl)c4c23)c1" — what was its fold less active than standard 20 in VEGFR-2 inhibition assay?
7 fold

Turning now to a further compound:
Sample "COc1cccc(Nc2nc(NC(=O)C(C)(C)C)nc3[nH]c4cccc(Cl)c4c23)c1" — what was its fold less active than standard 20 in VEGFR-2 inhibition assay?
~3.5 fold

====

System: A431 cancer cells
Measurement Kind: pIC50
Note on units: pIC50 is unitless, being -log10 of a concentration expressed in mol/L.

Given the entry [NH2][Pt]([NH2])([Cl])[Cl] [Cisplatin (23), cisplatin] , what pIC50 was observed with A431 cancer cells?
4.97
